- system-name: Human α7 (Homo sapiens, UniProt P36544)
- Construct: host or cells: HEK cells co-expressing RIC3
- protocol-description: Competition binding to human α7 receptors in membrane preparations
- condition-details: membranes, [3H]-epibatidine competition; Ki by Cheng-Prusoff; read-out: Human α7 Ki
A collection of compounds and their measured Ki

[
  {
    "molecular-string": "Clc1cncc(N2CC3CNCC(C2)O3)c1",
    "unit": "nM",
    "Ki": 180
  },
  {
    "molecular-string": "CN1CC2CN(c3cccnc3)CC(C1)O2",
    "unit": "nM",
    "Ki": 5900
  },
  {
    "molecular-string": "N#Cc1cc(N2CC3CNCC(C2)O3)cnc1F",
    "unit": "nM",
    "Ki": 16000
  },
  {
    "molecular-string": "N#Cc1cncc(N2CC3CNCC(C2)O3)c1",
    "unit": "nM",
    "Ki": 2000
  },
  {
    "molecular-string": "CN1CC2CN(c3cncc(F)c3)CC(C1)O2",
    "unit": "nM",
    "Ki": 2100
  },
  {
    "molecular-string": "COc1cccc(N2CC3CNCC(C2)O3)c1",
    "unit": "nM",
    "Ki": 800
  },
  {
    "molecular-string": "COc1cncc(N2CC3CNCC(C2)O3)c1",
    "unit": "nM",
    "Ki": 350
  }
]

====

- system-name: Human α7 (Homo sapiens)
- Construct: host or cells: HEK cells co-expressing RIC3
- protocol-description: Competition binding to human α7 receptors in membrane preparations

[
  {
    "molecular-string": "Clc1ncc(N2CC3CNCC(C2)O3)cc1C1CC1",
    "Ki (nM)": 87
  },
  {
    "molecular-string": "Fc1cncc(N2CC3CNCC(C2)O3)c1",
    "Ki (nM)": 76
  }
]

====

- system-name: Rat α4β2 (Rattus norvegicus, UniProt P09483+P12390)
- Construct: Preparation of membranes from rat tissues; Rat cortices were obtained from Analytical Biological Services; tissue Analytical Biological Services, Incorporated (ABS, Wilmington, Del.); host or cells: rat cortex membranes (female Sprague-Dawley)
- protocol-description: Competition binding to rat α4β2 receptors in membrane preparations
- condition-details: membranes, [3H]-epibatidine competition; Ki by Cheng-Prusoff; read-out: Rat α4β2 Ki
pKi: −log10 of the molar value.
Assign a class from recorded pKi; defined classes: class 0: < 6; class 1: ≥ 6 and < 8; class 2: ≥ 8

[
  {
    "molecular-string": "FC(F)Oc1cncc(N2CC3CNCC(C2)O3)c1",
    "class-assignment": "class 2"
  },
  {
    "molecular-string": "Cc1ccc(N2CC3CN(C)CC(C2)O3)cn1",
    "class-assignment": "class 0"
  },
  {
    "molecular-string": "CN1CC2CN(c3cncc(Oc4ccc(Cl)c(Cl)c4)c3)CC(C1)O2",
    "class-assignment": "class 1"
  },
  {
    "molecular-string": "COc1cc(N2CC3CNCC(C2)O3)cnc1F",
    "class-assignment": "class 2"
  },
  {
    "molecular-string": "Clc1cc(N2CC3CNCC(C2)O3)cnc1Cl",
    "class-assignment": "class 2"
  },
  {
    "molecular-string": "COc1ccncc1N1CC2CNCC(C1)O2",
    "class-assignment": "class 1"
  },
  {
    "molecular-string": "CN1CC2CN(c3cncc(F)c3)CC(C1)O2",
    "class-assignment": "class 1"
  },
  {
    "molecular-string": "CN1CC2CN(c3cc(F)cc(F)c3)CC(C1)O2",
    "class-assignment": "class 1"
  },
  {
    "molecular-string": "CN1CC2CN(c3ccc(Cl)nc3)CC(C1)O2",
    "class-assignment": "class 0"
  },
  {
    "molecular-string": "CN1CC2CN(c3cncc(Cl)c3)CC(C1)O2",
    "class-assignment": "class 0"
  }
]
